Form field: pEC50 (one value per entry).
Biological target: hPXR (Homo sapiens)
Sequence (O75469 whole entry): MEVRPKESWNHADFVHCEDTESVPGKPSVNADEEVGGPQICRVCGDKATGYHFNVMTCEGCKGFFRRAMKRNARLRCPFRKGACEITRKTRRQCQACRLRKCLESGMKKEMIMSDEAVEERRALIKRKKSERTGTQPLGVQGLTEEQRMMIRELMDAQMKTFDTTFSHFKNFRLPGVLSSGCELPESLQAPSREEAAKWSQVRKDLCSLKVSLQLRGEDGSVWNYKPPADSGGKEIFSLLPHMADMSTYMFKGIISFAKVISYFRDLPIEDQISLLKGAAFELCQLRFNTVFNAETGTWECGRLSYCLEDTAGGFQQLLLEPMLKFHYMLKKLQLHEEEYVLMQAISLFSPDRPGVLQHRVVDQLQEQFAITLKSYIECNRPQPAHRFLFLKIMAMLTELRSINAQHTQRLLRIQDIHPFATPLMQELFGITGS
Assay: hPXR luciferase-based reporter assay in HepG2 cells
pEC50: −log10 of the molar value.
MEASURED_QUANTITY: pEC50

MOLECULE | TESTED_ON | RESULT_QUALIFIER | QUANTITATIVE_READOUT
CC1(C)C(C=C(Cl)Cl)C1C(=O)OC(C#N)c1cccc(Oc2ccccc2)c1 (stereo not drawn) [α-Cypermethrin] | hPXR (Homo sapiens) | = | 5.80
C=CCOC(=O)C(C)(C)OC(=O)c1cc(-n2c(=O)cc(C(F)(F)F)n(C)c2=O)ccc1Cl [Butafenacil] | hPXR (Homo sapiens) | = | 5.22
COC(=O)c1ccccc1CS(=O)(=O)NC(=O)Nc1nc(OC)cc(OC)n1 [Bensulfuron methyl] | hPXR (Homo sapiens) | = | 4.05
COc1cc(OC)nc(NC(=O)NS(=O)(=O)c2cc(NC=O)ccc2C(=O)N(C)C)n1 [Foramsulfuron] | hPXR (Homo sapiens) | < | 4.30
